# Test system: RPMI-8226 leukemia
# Measurement notes: NCI-60 one-dose screen, 48 h
# Protocol conditions: 10 µM unless noted
The panel holds about 83,000 compounds, 20% with a hit somewhere; the sample as a whole holds those more often. Calls of active or inactive are those of the source. Rule for the calls: active = growth percent below 10; inactive = the rest.
Outcomes you can answer with include only these: Y for active, N for inactive

Compound: COC(=O)[C@H](NC(=O)C1(C)CCC[C@]2(C)[C@H]3C[C@H]4C(C(C)C)=C[C@]3(CC[C@@H]12)[C@@H]1C(=O)CCC(=O)[C@@H]14)C(C)C (some centres not stated)
Classification: N
//
Compound: Cc1ccc(NCCNCC(O)CO)c2c(=O)c3ccccc3sc12 (configuration not stated)
Classification: N
//
Compound: C=C[C@@H]1CCC/C=C/[C@@H]2C[C@H](O)C[C@H]2[C@H](O)/C=C/C(=O)O1
Classification: N

## Task Tell me the assay call for O=C(CCN1C(=O)c2ccccc2C1=O)Nc1ccc(Cl)cc1 please.
## Result Y

## Task Tell me the assay call for Cc1cc(Br)c(N)c(Br)c1 please.
## Result N

## Task Tell me the assay call for COc1cc(/C=C2\CCC/C(=C\c3cc(CN4CCOCC4)c(O)c(OC)c3)C2=O)cc(CN2CCOCC2)c1O please.
## Result N

## Task Tell me the assay call for O=C1Nc2ccccc2/C1=C/c1cccs1 please.
## Result N

## Task Tell me the assay call for CCn1c(SCC(=O)Nc2cc(C(F)(F)F)ccc2Cl)nc2ccccc2c1=O please.
## Result N

## Task Tell me the assay call for O=C(CSc1nc2ccccc2c(=O)n1-c1ccccc1)Nc1ccc(C(=O)/C=C/c2ccc(Cl)cc2)cc1 please.
## Result N

## Task Tell me the assay call for NNC(=O)CNC(=O)Nc1n[nH]c(=S)s1 please.
## Result N

----------
Reported growth values for a set of compounds
# Tested on: SF-268 CNS
# Measurement notes: NCI-60 one-dose screen, 48 h (100 = growth as untreated, 0 = no growth, -100 = all killed)
# Protocol conditions: 10 µM unless noted
This is part of a sample that, as a whole, favours compounds with a hit. Of some 83,000 tested, about 20% had one in any assay.
The answer is to be given in %; state only the numeric part.

Example cases with answers are listed next.
Compound: CCOC(=O)c1cnc2ccc(Cl)cc2c1NCCCN(C)C
growth, %: 1.81

Compound: CSc1nc2c(c(=O)[nH]1)N=C1c3ccccc3C(=O)C1C(c1ccccc1)N2 (centres undefined)
growth, %: 47.9

Compound: CCCCNc1nc(NC(C)(C)C)nc(NC(C)(C)C)n1
growth, %: 91.7

Compound: NCCOc1ncccc1/C=C1\c2ccccc2-c2ccc([N+](=O)[O-])cc21
growth, %: -12.9

Compound: CC1=CCC(OC(=O)C(C)(C)CCC(O)(C(=O)OC2(C(C)C)CCC3(C)OC3C2)C(C)C)(C(C)C)CC1 (centres undefined)
growth, %: -74.5

Compound: NC(CCc1nc2ccccc2c(=O)[nH]1)C(=O)O (centres undefined)
growth, %: 106

Compound: O=C(/C=C/c1ccc(Cl)cc1)c1ccc(Nc2nc(NCCO)nc(N3CCOCC3)n2)cc1
growth, %: 82

Compound: Clc1ccc(COc2ccc(Nc3ncnc4onc(-c5ccccc5)c34)cc2)cc1
growth, %: 89.2

Compound: COc1ccc(Nc2nc(N/N=C/c3ccc(O)cc3)nc(Nc3ccc([N+](=O)[O-])cc3)n2)cc1
growth, %: 128

Compound: O=c1oc2ccc(F)cc2c(=O)n1-c1ccc(Cl)cc1F
growth, %: 12.7

## Task Item C#CCn1cc(C=C2C(=O)N(C)C(=O)N(C)C2=O)c2cc(Cl)ccc21 : provide growth
## Result 96.8

## Task Item NC(=O)CSc1nc(-c2ccc(F)cc2)cc(-c2ccco2)n1 : provide growth
## Result 104

## Task Item O=C(NC1CCN(Cc2ccccc2)CC1)c1cc(C(=O)NC2CCN(Cc3ccccc3)CC2)cc(C(=O)NC2CCN(Cc3ccccc3)CC2)c1 : provide growth
## Result 71.4

## Task Item CCOC(=O)c1sc(-c2ccc(OS(=O)(=O)c3cccs3)c(C=O)c2)nc1C : provide growth
## Result 9.2

## Task Item O=C(Cn1cc(COc2ncnc3c2cnn3-c2ccccc2)nn1)Nc1cccc2ccccc12 : provide growth
## Result 92.6

----------
# Test system: SW-620 colon
# Measurement notes: NCI-60 one-dose screen, 48 h
# Protocol conditions: 10 µM unless noted
Compounds without any hit were thinned out: in the full panel of roughly 83,000, 20% have a hit. Activity calls are given as the source filed them. How the source made its calls: active means growth percent below 10; inactive means the rest.
Outcomes you can answer with include only these: TRUE = active, FALSE = inactive

Molecule: CCOC(=O)c1c(C=O)nc2ccccc2c1/C=C/c1ccc(Cl)cc1
Classification: FALSE
//
Molecule: COC(=O)C1(C)COP(=O)(Nc2ccc(OC)cc2)OC1 (stereo unspecified)
Classification: FALSE
//
Molecule: CCCCCCn1c(=N)n(CC(O)COc2cccc(C)c2)c2ccccc21 (stereo unspecified)
Classification: TRUE
//
Molecule: Nc1nc(Nc2cccc(F)c2)nc2ccccc12
Classification: FALSE
//
Molecule: COc1cc([C@@H]2NC(=O)NC(C)=C2C(=O)Nc2nc(-c3ccc(Cl)cc3)cs2)ccc1O
Classification: FALSE
//
Molecule: CCCCC1COc2cccc3c2N1C=C/C3=C\C(=O)N(C)c1ccccc1 (stereo unspecified)
Classification: FALSE
//
Molecule: CN(O)c1nc(N(C)O)nc(N2CCOCC2)n1
Classification: FALSE
//
Molecule: O=C(Nc1ccc(Cl)cc1F)c1cc(Br)ccc1O
Classification: FALSE

## Task Tell me the assay call for OC(c1ccccc1)c1nnc(SCc2ccccc2)n1Cc1ccccc1 (stereo unspecified) please.
## Result FALSE

## Task Tell me the assay call for O=C(/C=C/c1ccc(Cl)cc1)c1ccc(Nc2nc(NCCO)nc(Nc3ccc(Cl)cc3)n2)cc1 please.
## Result FALSE

## Task Tell me the assay call for COc1ccc2[nH]c(O)c(N=NC(=O)c3oc4ccccc4c3C)c2c1 please.
## Result FALSE

----------
Reported growth values for a set of compounds
# Tested on: PC-3 prostate
# Measurement notes: NCI-60 one-dose screen, 48 h (100 = growth as untreated, 0 = no growth, -100 = all killed)
# Protocol conditions: 10 µM unless noted
This is part of a sample that, as a whole, favours compounds with a hit. Of some 83,000 tested, about 20% had one in any assay.
The answer is to be given in %; state only the numeric part.

Compound: O=C(Cn1cc(COc2ncnc3c2cnn3-c2ccccc2)nn1)Nc1cccc2ccccc12
Measured target: PC-3 prostate
Readout unit: %
growth: 95.8
//
Compound: N#CC(C#N)=Cc1c(-c2ccccc2)[nH]c2ccccc12
Measured target: PC-3 prostate
Readout unit: %
growth: 9.36
//
Compound: Cc1[nH]c2ccccc2c(=O)c1CC=C(Cl)Cl
Measured target: PC-3 prostate
Readout unit: %
growth: 43.6
//
Compound: O=C(c1ccccc1)N(CCc1ccc(Cl)cc1)C(=S)N(C(=O)c1ccccc1)c1ccccc1
Measured target: PC-3 prostate
Readout unit: %
growth: 85.7
//
Compound: O=C(/C=C/c1ccc(C(F)(F)F)cc1)c1ccc(Nc2nc(NCCO)nc(N3CCOCC3)n2)cc1
Measured target: PC-3 prostate
Readout unit: %
growth: 25.3

## Task Item CC(=O)c1ccc(Nc2nc(NCCO)nc(Nc3ccc(Cl)cc3)n2)cc1 : provide growth
## Result 90.5

## Task Item CCCN1C(=O)N(CCC)C2C1NN=c1s/c(=C3\C(=O)N(C(C)C)c4ccccc43)c(=O)n12 (stereo not given) : provide growth
## Result 35.8

## Task Item COc1ccc2sc3c(NCCCN)nc4ccccc4c3c(=O)c2c1 : provide growth
## Result 48.8

## Task Item CN1C(=O)N(C)C2C1NN=c1s/c(=C\c3ccc([N+](=O)[O-])cc3)c(=O)n12 (stereo not given) : provide growth
## Result 45.8

## Task Item N#C/C(=C1\SC(=O)CN1c1ccccc1)c1nc2ccccc2s1 : provide growth
## Result 92

----------
# Tested on: T-47D breast
# Measurement notes: NCI-60 one-dose screen, 48 h
# Protocol conditions: 10 µM unless noted
Compounds without any hit were thinned out: in the full panel of roughly 83,000, 20% have a hit. Active and inactive are the calls of the source. How the source made its calls: active means growth percent below 10; inactive means the rest.
Outcomes you can answer with include only these: True = active, False = inactive

Compound: CCOC(=O)C1=C(C)N=c2s/c(=C\c3cc(Cl)ccc3O)c(=O)n2C1c1ccc(OC)cc1 (stereo unspecified)
Classification: False

## Task Tell me the assay call for N#CC(C#N)=Cc1c(-c2ccccc2)[nH]c2ccccc12 please.
## Result False

## Task Tell me the assay call for Cc1ccc(S(=O)c2ccc([N+](=O)[O-])c3nonc23)cc1 (stereo unspecified) please.
## Result False

## Task Tell me the assay call for CC(=O)n1cc(-c2c[nH]c3ccccc23)c(-c2ccc(Cl)cc2)n1 please.
## Result False

## Task Tell me the assay call for CCOc1c(Br)cc(C2C(C(=O)OC)=CN(C)C=C2C(=O)OC)cc1OC please.
## Result False

## Task Tell me the assay call for COc1cc(C#N)cc2[nH]c(=O)oc12 please.
## Result False

## Task Tell me the assay call for COc1ccc(CCN2CCC(CN(C)Cc3cnn(-c4ccccc4)c3)CC2)cc1 please.
## Result False

## Task Tell me the assay call for COCCN(C(=O)Cc1cccs1)C(C(=O)NCc1ccc(OC)cc1)c1ccc(C(C)C)cc1 (stereo unspecified) please.
## Result False

## Task Tell me the assay call for CN1CCN(Cc2ccc(NC(=O)c3[nH]ncc3Nc3cc(OC4CCCC4)ncn3)cc2)CC1 please.
## Result False
